Tested on: rodent lifetime carcinogenesis bioassay, tumor incidence TD50
assay_explanation: carcinogenic potency in animals, long-term in vivo studies, CPDB compilation (AID 1745844)
condition_set: rat; strain Sprague-Dawley; both sexes; in drinking water; site: liver; lesion: liver-cell carcinoma; dosed 104 weeks; study length 104 weeks
parameter: TD50 (mg/kg/day)
// return numeric value only (unit: mg/kg/day, not printed)

Query :: I am curious: what TD50 value has been reported for C[C@H]1CCCCN1N=O ?
Result :: 61.2

----------
Tested on: rodent lifetime carcinogenesis bioassay, tumor incidence TD50
assay_explanation: carcinogenic potency in animals, long-term in vivo studies, CPDB compilation (AID 1745844)
condition_set: rat; strain Fischer 344; females; in drinking water; site: liver; lesion: one or several types; types not named; dosed 50 weeks; study length 125 weeks
parameter: TD50 (mg/kg/day)
// return numeric value only (unit: mg/kg/day, not printed)

Query :: # lookup: TD50 of CC1CN(N=O)CC(C)N1C(=O)c1ccccc1 (stereo unspecified)
Result :: 9.1

----------
Test system: rodent lifetime carcinogenesis bioassay, tumor incidence TD50
assay_explanation: carcinogenic potency in animals, long-term in vivo studies, CPDB compilation (AID 1745844)
condition_set: rat; strain F344/DuCrj; males; in feed; site: liver; lesion: hepatocellular carcinoma; dosed 56 weeks; study length 56 weeks
parameter: TD50

Query :: Given the entry Cc1cnc2ccc3c(nc(N)n3C)c2n1 , report its measured TD50.
Result :: 2.91 mg/kg/day

----------
Tested on: rodent lifetime carcinogenesis bioassay, tumor incidence TD50
assay_explanation: carcinogenic potency in animals, long-term in vivo studies, CPDB compilation (AID 1745844)
condition_set: mouse; strain Charles River CD1; females; in feed; site: urinary bladder; lesion: squamous-cell carcinoma; dosed 36 weeks; study length 68 weeks
parameter: TD50

Query :: Which TD50 value belongs to O=CNc1nc(-c2ccc([N+](=O)[O-])o2)cs1 ?
Result :: 128 mg/kg/day

----------
Test system: rodent lifetime carcinogenesis bioassay, tumor incidence TD50
assay_explanation: carcinogenic potency in animals, long-term in vivo studies, CPDB compilation (AID 1745844)
condition_set: mouse; strain B6C3F1; females; in feed; site: lung; lesion: alveolar/bronchiolar adenoma + alveolar/bronchiolar carcinoma; dosed 103 weeks; study length 106 weeks
parameter: TD50 (mg/kg/day)
State just the number; it will be interpreted in mg/kg/day.

Query :: // lookup TD50 | system=rodent lifetime carcinogenesis bioassay, tumor incidence TD50 | key= Nc1ccc(N)c2c1C(=O)c1c(N)ccc(N)c1C2=O
Result :: 9310

----------
Tested on: rodent lifetime carcinogenesis bioassay, tumor incidence TD50
assay_explanation: carcinogenic potency in animals, long-term in vivo studies, CPDB compilation (AID 1745844)
condition_set: rat; strain Fischer 344; females; in drinking water; site: mammary gland; lesion: adenocarcinoma; dosed 91 weeks; study length 93 weeks
parameter: TD50

Query :: What measured TD50 goes with COc1cc(-c2ccc(N)c(OC)c2)ccc1N ?
Result :: 7.7 mg/kg/day

----------
Test system: rodent lifetime carcinogenesis bioassay, tumor incidence TD50
assay_explanation: carcinogenic potency in animals, long-term in vivo studies, CPDB compilation (AID 1745844)
condition_set: mouse; strain Swiss albino; males; by gavage; site: lung; lesion: adenoma; dosed 52 weeks; study length 129 weeks
parameter: TD50

Query :: I would be grateful if you could share the reported TD50 for N#[N+]c1ccccc1 .
Result :: 14.8 mg/kg/day
